Source listed as ChEMBL document CHEMBL3992503.

assay: Inhibition of equine liver GST assessed as decrease in conjugation of CDNB to GSH preincubated with GSH for 30 mins followed by CDNB addition measured for 3 mins; design: species or system Equus caballus
ASSAY ENDPOINT: IC50

The compound listed as O=C1C=CCCN1C(=O)/C=C/c1cccc(C(F)(F)F)c1 shows IC50 equal to 50.1 µM

The compound listed as COc1cc(/C=C/C(=O)N2CCCCC2=O)cc(OC)c1OC shows IC50 equal to > 100 µM

The compound listed as O=C1C=CCCN1C(=O)/C=C/c1ccc(C(F)(F)F)cc1 shows IC50 equal to 41.6 µM

The compound listed as COc1cc(CCC(=O)N2CCCCC2=O)cc(OC)c1OC [TETRAHYDROPIPLARTINE] shows IC50 equal to > 100 µM

The compound listed as COc1cc(/C=C/C(=O)N2CCC=CC2=O)cc(OC)c1OC [PIPLARTINE] shows IC50 equal to > 100 µM

The compound listed as O=C1C=CCCN1C(=O)/C=C/c1ccccc1C(F)(F)F shows IC50 equal to > 100 µM

The compound listed as O=C(/C=C/c1cccc(C(F)(F)F)c1)N1CCC=C(Cl)C1=O shows IC50 equal to 10.5 µM

The compound listed as C/C=C/C(=O)N1CCC=CC1=O shows IC50 equal to > 100 µM

The compound listed as COc1cc(/C=C/C(=O)N2CCC=C(Cl)C2=O)cc(OC)c1OC shows IC50 equal to > 100 µM

The compound listed as COc1cc(/C=C/C(=O)C2CCC=CC2=O)cc(OC)c1OC (configuration not stated) shows IC50 equal to > 100 µM

The compound listed as O=C(/C=C/c1ccc(C(F)(F)F)cc1)N1CCC=C(Cl)C1=O shows IC50 equal to 5.6 µM

The compound listed as O=C(/C=C/c1ccccc1C(F)(F)F)N1CCC=C(Cl)C1=O shows IC50 equal to > 100 µM
